Test system: E. Coli ATCC 25922
measure_name: MIC

[
  {
    "smiles_code": "CNc1cc(F)cc2cc(C(=O)Nc3ccc(C(=O)O)cc3CCN(C)C)c(=O)[nH]c12",
    "result": "> 4 µg/mL"
  },
  {
    "smiles_code": "CNc1cccc2cc(C(=O)Nc3cccnc3)c(=O)[nH]c12",
    "result": "> 64 µg/mL"
  },
  {
    "smiles_code": "CNc1cc(F)cc2cc(C(=O)Nc3cnc(C(=O)NCCN4CCOCC4)nc3)c(=O)[nH]c12",
    "result": "0.25 µg/mL"
  },
  {
    "smiles_code": "CNc1cc(F)cc2cc(C(=O)Nc3ccccc3CN(CC(=O)O)C3CCCCC3)c(=O)[nH]c12",
    "result": "> 64 µg/mL"
  }
]

* * *

Test system: E. Coli ATCC 25922

[
  {
    "smiles_code": "CCCCCCCCN(CCCCCCCC)Cc1cc(C(=O)O)ccc1NC(=O)c1cc2cc(F)cc(NC)c2[nH]c1=O",
    "MIC": "> 8 mg/L"
  },
  {
    "smiles_code": "CNc1cccc2cc(C(=O)Nc3ccc(C(=O)NCC4CCNCC4)cc3)c(=O)[nH]c12.O=CO",
    "MIC": "> 32 mg/L"
  },
  {
    "smiles_code": "CNc1cc(F)cc2cc(C(=O)Nc3ccc(C(=O)NCC4CCN(CCN)CC4)cc3)c(=O)[nH]c12",
    "MIC": "> 16 mg/L"
  },
  {
    "smiles_code": "CNc1cc(F)cc2cc(C(=O)Nc3cnccc3CN(C)C3CCCCC3)c(=O)[nH]c12",
    "MIC": "> 16 mg/L"
  },
  {
    "smiles_code": "CNc1cc(F)cc2cc(C(=O)Nc3ccc(C(=O)NO)cc3)c(=O)[nH]c12",
    "MIC": "> 4 mg/L"
  },
  {
    "smiles_code": "CNc1cc(F)cc2cc(C(=O)N[C@H]3CC[C@H](C(=O)O)CC3)c(=O)[nH]c12",
    "MIC": "> 64 mg/L"
  },
  {
    "smiles_code": "CCCCCN(C)Cc1cc(C(=O)O)ccc1NC(=O)c1cc2cc(F)cc(NC)c2[nH]c1=O",
    "MIC": "4 mg/L"
  },
  {
    "smiles_code": "CNc1cccc2cc(C(=O)NC3CN(c4ncc(C(=O)O)s4)C3)c(=O)[nH]c12",
    "MIC": "> 64 mg/L"
  }
]
